# EXPERIMENTAL_TARGET: T1, pCD163-SRCR4-7-huFc (porcine, UniProt Q2VL90 372-818, limits assumed)
# T1 construct: also called pCD163:SRCR4-7-Fc; pCD163-SRCR4-7-Fc; not shown: human Fc (huFc)
# T1 sequence (Q2VL90 372-818 limits assumed): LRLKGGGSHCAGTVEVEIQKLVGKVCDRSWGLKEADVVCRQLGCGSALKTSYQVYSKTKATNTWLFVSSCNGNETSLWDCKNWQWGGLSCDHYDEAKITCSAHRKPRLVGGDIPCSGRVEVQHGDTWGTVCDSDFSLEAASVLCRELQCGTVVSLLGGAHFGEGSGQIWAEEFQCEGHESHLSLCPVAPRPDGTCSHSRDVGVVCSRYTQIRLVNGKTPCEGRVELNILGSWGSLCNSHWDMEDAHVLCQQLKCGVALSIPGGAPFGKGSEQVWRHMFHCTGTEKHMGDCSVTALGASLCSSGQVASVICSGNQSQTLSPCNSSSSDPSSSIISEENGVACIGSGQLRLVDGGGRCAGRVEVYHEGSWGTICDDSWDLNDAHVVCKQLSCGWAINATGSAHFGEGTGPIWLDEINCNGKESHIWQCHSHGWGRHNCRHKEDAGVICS
# ASSAY_METHOD_TEXT: ELISA, periplasmic extract on coated antigen
Reported O.D. 450 values follow for various binders
Give your result in O.D. 450 as a bare value.

BINDER: VHH 015 (2G01) (VHH, Llama single domain antibody; also called 150(#15); VHCDR3 150(#15); not shown: tags: c-myc tag in periplasmic extract (ELISA, FACS); FLAG and His tags in purified VHH (SPR, infection assays)) VHH: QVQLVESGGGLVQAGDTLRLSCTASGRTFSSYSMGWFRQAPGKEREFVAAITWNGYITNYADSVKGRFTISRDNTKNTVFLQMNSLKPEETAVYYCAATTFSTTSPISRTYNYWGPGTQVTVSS
O.D. 450 [O.D. 450]: 4.37

Now let's try a different one.
q: May I ask what O.D. 450 has been recorded for VHH 023 (4E10) (VHH, Llama single domain antibody; also called 70(#23); VHCDR3 70(#23); not shown: tags: c-myc tag in periplasmic extract (ELISA, FACS); FLAG and His tags in purified VHH (SPR, infection assays)) VHH: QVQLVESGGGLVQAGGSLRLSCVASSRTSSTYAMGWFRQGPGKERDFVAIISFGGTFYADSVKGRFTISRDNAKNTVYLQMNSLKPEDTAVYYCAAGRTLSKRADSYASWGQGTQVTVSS ?
a: 4.1
